System: IGROV-1
Assay: NCI tumour cell line growth inhibition, 48 h
Active and inactive are the calls of the source. Cut-off read from the data, not from the text of the source: active = GI50 up to about 1.1 µM and inactive = higher.
Parameter GI50: see the listing below.

The following compounds have reported results that may help.
{"Compound": "COc1cc(/C=C2\\CCC(C)C3=C2NC(=S)NC3c2cc(OC)c(OC)c(OC)c2)cc(OC)c1OC (stereo unspecified)", "GI50": "40.3 µM (inactive)"}
{"Compound": "COc1ccccc1Cn1c2c(c3cc(O)ccc31)C(=O)c1ccccc1C2=O", "GI50": "16.6 µM (inactive)"}
{"Compound": "COc1ccc(/C=N/Nc2nc(C)c3c(n2)Nc2ccccc2NC3=O)cc1", "GI50": "> 100 µM (inactive)"}
{"Compound": "CC(=O)c1cccc(NC(=O)/C(=N\\NC(=S)NN)C2C(=O)Nc3ccccc3[S+]2[O-])c1 (stereo unspecified)", "GI50": "> 100 µM (inactive)"}
{"Compound": "CC(=O)N1N=C(N)CC1=O", "GI50": "> 100 µM (inactive)"}
{"Compound": "N#C/C(C(=O)Nc1ccc(Cl)cc1)=C(/N)N1CCOCC1", "GI50": "> 100 µM (inactive)"}

IN: Complete the entry with GI50 for Cc1nc(-n2nc(-c3ccccc3)cc2-c2ccccc2)sc1C(=O)/C=C/c1ccc(Cl)c(Cl)c1
OUT: 12.1 µM (inactive)

IN: Note down GI50 recorded for CC(C)N(C(C)C)S(=O)(=O)CC12CCC(C/C1=N\O)C2 (stereo unspecified)
OUT: > 100 µM (inactive)

IN: Name the recorded GI50 of the item CCOC(=O)/C=C\C(C#N)(C#N)/N=C/c1ccsc1 in your answer.
OUT: 14.5 µM (inactive)

IN: Look up GI50 of C=CCNC(=O)C(C)C1CCC2(C)C=CC(=O)C(C)=C2C1O (stereo unspecified) and report it.
OUT: > 100 µM (inactive)

IN: Query GI50 for COc1ccc(N2C(=O)C3ON(C(C(N)=O)c4ccccc4)C(c4cc5ccccc5c5ccccc45)C3C2=O)cc1 (stereo unspecified)
OUT: 18.4 µM (inactive)

----------
Tested on: NCI/ADR-RES
Assay: NCI tumour cell line growth inhibition, 48 h
Active and inactive are the calls of the source. Rule as the data show it: active = GI50 up to about 1.1 µM and inactive = higher.
Catalogue of GI50 values

Illustrative cases are given below, each with its answer.
{"Compound": "Cc1cc(Cl)ccc1NC(=O)/C(Cl)=C(/Cl)C(=O)O", "Result": "29 µM (inactive)"}
{"Compound": "Cc1cc2c(c(S(=O)(=O)c3ccccc3[N+](=O)[O-])c1)NCCC2", "Result": "50 µM (inactive)"}
{"Compound": "Br[Se]c1ccccn1", "Result": "26.1 µM (inactive)"}
{"Compound": "CC1=CC=CC(C)(C)CC1(O[Si](C)(C)C)C(F)(F)F (configuration not stated)", "Result": "> 100 µM (inactive)"}
{"Compound": "N#CC1C=Cc2ccccc2N1C(=O)Oc1ccccc1 (configuration not stated)", "Result": "55.5 µM (inactive)"}

IN: Provide measured GI50 value, entry: N=c1oc2cc(O)ccc2cc1C(=O)Nc1ccccn1
OUT: 48.8 µM (inactive)

IN: Quote GI50 reported for CCN1C/C(=C\c2ccc(Cl)cc2)c2[nH]c(=O)c(C#N)c(-c3ccc(Cl)cc3)c2C1 please.
OUT: > 100 µM (inactive)

----------
System: SF-539
Assay: NCI tumour cell line growth inhibition, 48 h
Calls of active or inactive are those of the source. Cut-off read from the data, not from the text of the source: active = GI50 up to about 1.1 µM and inactive = higher.
Endpoint label: GI50

{"Compound": "COc1cc(/C=C(\\C#N)C(N)=O)cc(Br)c1O", "Tested target": "SF-539", "Result": "> 100 µM (inactive)"}

Please turn your attention to the following entry.
IN: Give GI50 for this entry on SF-539: c1c(N2CCOCC2)s[s+]c1N1CCOCC1
OUT: > 100 µM (inactive)

----------
System: SK-MEL-5
Assay: NCI tumour cell line growth inhibition, 48 h
Active and inactive are the calls of the source. Rule as the data show it: active = GI50 up to about 1.1 µM and inactive = higher.
Please answer using one outcome listed in class 1 (active), class 0 (inactive)

Here's what some known entries look like.
{"Molecule": "CC(=O)c1cccc(NC(=O)/C(=N\\NC(=S)NN)C2C(=O)Nc3ccccc3[S+]2[O-])c1 (configuration not stated)", "Label": "class 0"}
{"Molecule": "COc1ccc(CCNCc2cccc(OC)c2OC)cc1OC", "Label": "class 0"}
{"Molecule": "Cc1ccc(Oc2ccc(C)cc2[N+](=O)[O-])cc1", "Label": "class 0"}
{"Molecule": "COc1ccc2c(c1)[n+]([O-])c(C(=O)CC(=O)C(=O)Nc1cccc(C)c1C)c(C)[n+]2[O-]", "Label": "class 0"}
{"Molecule": "CC(=O)C(CN(C(C)C)C(C)C)C(c1ccccc1)c1c(O)c2ccccc2oc1=O (configuration not stated)", "Label": "class 0"}
{"Molecule": "CC1=NN(C(=O)c2ccccc2O)C(=O)/C1=C/c1ccccc1O", "Label": "class 1"}
{"Molecule": "COc1cc(/C=N\\O)nc(-c2ccccn2)c1", "Label": "class 1"}
{"Molecule": "CCOc1ccccc1NC(=O)CC1SC(Nc2ccc([N+](=O)[O-])cc2)=NC1=O (configuration not stated)", "Label": "class 0"}
{"Molecule": "FC(F)(Sc1ncc[nH]1)c1nc2ccccc2o1", "Label": "class 0"}
{"Molecule": "O=CC(=C(I)I)c1ccccc1", "Label": "class 0"}

IN: Look up the recorded call for CCOc1ccc(NC2=CC(=O)C(=O)c3ccccc32)cc1 in this test.
OUT: class 0

IN: Just curious, what result did O=C1CSC(c2c[nH]c3ccccc23)N1c1ccccc1[N+](=O)[O-] (configuration not stated) get here?
OUT: class 0

IN: What outcome does the record of this test show for Cc1c(C(=O)O)oc2ccc([N+](=O)[O-])cc12 ?
OUT: class 0

IN: Short answer needed: outcome of this test for N#Cc1c(-c2ccccc2)cc(Nc2cccc(C(F)(F)F)c2)n2c1nc1ccccc12 ?
OUT: class 1

----------
Tested on: BT-549
Test: NCI tumour cell line growth inhibition, 48 h
Active and inactive are the calls of the source. No stated cut-off is given here; in the data, active = GI50 up to about 1.1 µM and inactive = higher.
Endpoint label: GI50

// below: answered compounds
{"Compound": "N#Cc1c(-c2ccccc2)cc(Nc2cccc(C(F)(F)F)c2)n2c1nc1ccccc12", "GI50": "3.82 µM (inactive)"}
{"Compound": "COc1ccc2cc(C(C)C(=O)N3C(=O)OCC3(C)C)ccc2c1 (stereo not drawn)", "GI50": "> 100 µM (inactive)"}

Now let's try a different one.
IN: Would you please give the reported GI50 of CCOC(=O)/C=C\C(C#N)(C#N)/N=C/c1ccsc1 with BT-549?
OUT: 5.42 µM (inactive)

----------
Tested on: COLO 205
Test: NCI tumour cell line growth inhibition, 48 h
Activity calls are given as the source filed them. No stated cut-off is given here; in the data, active = GI50 up to about 1.1 µM and inactive = higher.
Endpoint label: GI50

{"Compound": "[O-]c1on[n+]2c1c(Nc1ccc(Cl)cc1)nc1ccccc12", "Tested target": "COLO 205", "GI50": "> 100 µM (inactive)"}
{"Compound": "CSc1nc(-c2cc3c(c(SC)n2)CCCCC3)cc2c1CCCCC2", "Tested target": "COLO 205", "GI50": "> 100 µM (inactive)"}
{"Compound": "[O-]c1c[n+](CC[n+]2cc([O-])on2)no1", "Tested target": "COLO 205", "GI50": "> 100 µM (inactive)"}
{"Compound": "COc1ccc2nc3ccc(OC)cc3c(SCCCl)c2c1", "Tested target": "COLO 205", "GI50": "> 39.1 µM (inactive)"}

IN: Hello, please tell me recorded GI50 for this one: CCOC(=O)COc1ccccc1/C=C1\CCC(CN(C)C)C1=O (stereo unspecified)
OUT: 3.9 µM (inactive)

IN: Using known records, supply GI50 for NCCNCCCCCCNC(=O)c1cccc2cc3ccccc3nc12
OUT: 2.75 µM (inactive)

----------
// reported GI50 per item
Tested on: MDA-MB-231
Experiment: NCI tumour cell line growth inhibition, 48 h
Activity calls are given as the source filed them. No stated cut-off is given here; in the data, active = GI50 up to about 1.1 µM and inactive = higher.

The cases that follow already have their GI50 on record.
{"Smiles entry": "N#CI1OC(C(F)(F)F)(C(F)(F)F)c2ccccc21", "Tested target": "MDA-MB-231", "GI50": "24 µM (inactive)"}
{"Smiles entry": "COc1ccc2nc(-c3ccc(O)cc3)sc2c1", "Tested target": "MDA-MB-231", "GI50": "23 µM (inactive)"}

Now, please, on to the next molecule.
IN: Identify measured GI50 corresponding to Cc1ccc2nc(N/N=C/c3ccc(C)s3)cc(C)c2c1
OUT: 16.1 µM (inactive)

----------
Tested on: NCI/ADR-RES
Experiment: NCI tumour cell line growth inhibition, 48 h
Activity calls are given as the source filed them. No stated cut-off is given here; in the data, active = GI50 up to about 1.1 µM and inactive = higher.
# GI50 values compiled below

In the examples that follow, each entry is paired with its recorded GI50.
{"Compound": "CN1CCN([C@H]2C[C@H]3[C@@H]4CC=C5C[C@@H](O)CC[C@]5(C)[C@H]4CC[C@]3(C)[C@H]2O)CC1", "Tested target": "NCI/ADR-RES", "GI50": "> 87.7 µM (inactive)"}
{"Compound": "COc1ccc2nc3ccc(OC)cc3c(SCCCl)c2c1", "Tested target": "NCI/ADR-RES", "GI50": "16.3 µM (inactive)"}
{"Compound": "O=C(CSc1nc2ccc([N+](=O)[O-])cc2s1)c1ccc2ccccc2c1", "Tested target": "NCI/ADR-RES", "GI50": "> 100 µM (inactive)"}
{"Compound": "Cc1c(C2=NN=C(/N=N/c3c(O)cccc3O)/C2=C/c2ccccc2)c(=O)n(-c2ccccc2)n1C", "Tested target": "NCI/ADR-RES", "GI50": "> 100 µM (inactive)"}

Now consider the entry below.
IN: Please report GI50 for the following compound: CC(C)(C)N(Cc1ccc2c(c1)OCO2)C(=O)/C=C\[S+]([O-])c1ccccc1 (stereo not given)
OUT: 2.48 µM (inactive)
